These measurements were taken from PubChem BioAssay (NCATS).

# Assay Remarks: Drug repurposing screens with cells derived from glioblastoma tumor samples (AID 1345199); also: % is scaled to controls: 0 for no effect and ±100 for the full control effect; nearly all actives have a fitted effect of over 40% in size
# Measurement Parameters: GBM patient neurospheres viability, ATP luminescence, 48 h; at 46 µM (top of the series); tumour line A
Records with an inconclusive call do not appear.
Experimental Readout: activity, negative = cell killing (%)
Report only the number, with the unit % understood.

Q) Using known records, supply activity, negative = cell killing for COC(=O)C1=CCCN(C)C1
A) -22.4

Q) Input C=CCN1CC[C@]23CCCC[C@H]2[C@H]1Cc1ccc(O)cc13 , output reported activity, negative = cell killing.
A) 29

Continuing:
Q) Identify the reported activity, negative = cell killing for the following entry. CNC(=O)NC(O)C(Cl)(Cl)Cl (stereo not drawn)
A) -5.01

---

# Test system: Hek293T
# Assay Remarks: Primary qHTS to identify gynecologic anti-cancer compounds using libraries of approved drugs and bioactive compounds (AID 1345084); also: % is scaled to controls: 0 for no effect and ±100 for the full control effect; nearly all actives have a fitted effect of over 55% in size
# Measurement Parameters: Gynecologic cancer cell panel viability, ATPlite luminescence, 48 h, control line for the selectivity index; series mostly up to 57.5 µM
Results filed as inconclusive are left out. Activity calls are given as the source filed them. Calls follow the shape of the dose curve; as a rule, active = well fitted cell-killing curve with a large enough effect; inconclusive = small, poorly fitted or top-dose-only effect, or effect the other way; inactive = flat fitted curve, though single readings scatter.
Write down the outcome that applies. Available outcomes: YES for active, NO for inactive

Q) Query: recorded result category for ClCc1cccc(Cl)c1 in this test
A) NO

---

# Assay Remarks: qHTS of pediatric cancer cell lines to identify multiple opportunities for drug repurposing: Primary screen for BT-12 cells (AID 1347101); also: nearly all actives have a fitted effect of over 25% in size; also: potency is read from the fitted curve at half-maximal effect
# Measurement Parameters: BT-12 viability, CellTiter-Glo luminescence, 48 h; series mostly up to 57.3 µM
Results filed as inconclusive are left out. Calls of active or inactive are those of the source. Calls come from the whole dose curve; as a rule, active = well fitted cell-killing curve with a large enough effect; inconclusive = small, poorly fitted or top-dose-only effect; inactive = flat fitted curve, though single readings scatter.
Experimental Readout: Potency

Q) Give recorded Potency. CC(Cc1ccccc1)NCc1ccccc1Cl (configuration not stated)
A) inactive

Q) # return recorded Potency for entry Cc1nc2ccccc2c(=O)n1-c1ccccc1Cl
A) inactive

Q) Using the record for CC(C)(C)OC(=O)c1ncn2c1[C@@H]1CCCN1C(=O)c1c(Br)cccc1-2 , state its measured Potency.
A) inactive

Q) Answer with the recorded Potency for the compound listed here: CCOC(=O)c1cncn1C(C)c1ccccc1 (configuration not stated)
A) inactive

Q) // Input: C[N+](C)(C)CCOC(=O)C(O)(c1ccccc1)c1ccccc1 . Output its Potency only.
A) inactive

Further cases:
Q) Input Cc1nnc2n1-c1sc(CCc3ccc(CC(C)C)cc3)cc1C(c1ccccc1Cl)=NC2C (configuration not stated) , output reported Potency.
A) 11 µM (active)

Q) Assign Potency to the following record: N#Cc1nn(-c2c(Cl)cc(C(F)(F)F)cc2Cl)c(N)c1S(=O)C(F)(F)F (configuration not stated)
A) 12.3 µM (active)

Q) Recall and state the measured Potency for CNC(C)Cc1ccccc1OC (configuration not stated) .
A) inactive

---

# Test system: CRL-7250
# Assay Remarks: Cytotoxic Profiling of Annotated Libraries Using Quantitative High-Throughput Screening (AID 1296008); also: nearly all actives have a fitted effect of over 60% in size
# Measurement Parameters: Five cell lines viability, CellTiter-Glo ATP luminescence, 48-72 h
# Method: Cell-based phenotypic screening is a commonly used approach to discover biological pathways, novel drug targets, chemical probes and high-quality hit-to-lead molecules. […] A pintool (Kalypsys) was used to transfer 23 nL of compound solution to the 1536-well assay plates. […] Plates were left at room temperature for 10 min before imaging the ATP-coupled luminescence using a ViewLux microplate imager (PerkinElmer, Waltham, MA).
Results filed as inconclusive are left out. The source made the active and inactive calls. Calls follow the shape of the dose curve; as a rule, active = well fitted inhibition curve with a large enough effect; inconclusive = small, poorly fitted or top-dose-only effect; inactive = flat fitted curve, though single readings scatter.
Mark one answer only. Choices: active, inactive

The examples below pair each entry with its known result.
Q) Recorded test call requested for CN(C)CCc1c[nH]c2cccc(O)c12
A) inactive

Q) What did the test return for NC(=O)CN1CCCC1=O ?
A) inactive

Q) How did this test come out for C[C@@H]1O[C@@H](O[C@@H]2C=C3CC[C@@H]4[C@H](CC[C@]5(C)[C@@H](c6ccc(=O)oc6)CC[C@]45O)[C@@]3(C)CC2)[C@H](O)[C@H](O)[C@H]1O ?
A) active

Q) Test call for this compound, please: O=C1CN2CCOC2(c2ccccc2Cl)c2cc(Cl)ccc2N1 (stereo not drawn)
A) inactive

Q) State the result this test recorded for O=C(CBr)Nc1ccc(Cl)cc1C(=O)c1ccccc1F .
A) inactive

Q) What outcome does the record of this test show for CCOC(=O)c1cncn1C(C)c1ccccc1 (stereo not drawn) ?
A) inactive

Q) What call does the record list for O=c1n(Cl)c(=O)n(Cl)c(=O)n1Cl ?
A) inactive

Q) Could you kindly confirm the outcome this assay logged for CCCC[N+]1(C)[C@@H]2CC(OC(=O)[C@H](CO)c3ccccc3)C[C@H]1[C@@H]1O[C@@H]12 (stereo partly drawn) ?
A) inactive

Further cases:
Q) Which outcome did this test record for the compound C[C@]12CC[C@H]3[C@@H](CCC4=CC(=O)CC[C@@]43C)[C@@H]1CC[C@@H]2C(=O)O ?
A) inactive

Q) Lab log entry: Cc1ccc([N+](=O)[O-])[c]2c1[O][Hg]2 — outcome as called in the assay?
A) active

Q) Tell me the assay call for CCCCCCCCCCCC[N+](C)(C)CCOc1ccccc1 please.
A) active

Q) Tell me the assay call for C[N+]1(C)[C@@H]2CC[C@H]1CC(OC(=O)C(CO)c1ccccc1)C2 (stereo partly drawn) please.
A) inactive

Q) // param item: CN1C[C@@H](NS(=O)(=O)N(C)C)C[C@@H]2c3cccc4c3c(cn4C)C[C@H]21 ; yields the recorded call
A) inactive

Q) Outcome? COP(=O)(OC)OC=C(Cl)Cl
A) inactive

Q) Record request — test call for CC(C)C(Br)C(=O)NC(N)=O (stereo not drawn)
A) inactive

Q) Hello, I am checking results. What call was entered for C[C@H]1CNCCc2ccc(Cl)cc21 ?
A) inactive

Q) Record request — test call for COC(=O)C1=CCCN(C)C1
A) inactive

Q) Hi team, can someone confirm the assay call for CCC(OC(C)=O)C(CC(C)NC)(c1ccccc1)c1ccccc1 (stereo not drawn) ?
A) active
